- assayed.system: T1, monomeric human PRLR (hPRLR.mmh; SEQ ID NO:401) (Homo sapiens, UniProt P16471)
- T1 construct: soluble monomeric (hPRLR.mmh); mmh (myc-myc-hexahistidine) (C)
- T1 sequence (P16471 with tags, fused parts or gaps): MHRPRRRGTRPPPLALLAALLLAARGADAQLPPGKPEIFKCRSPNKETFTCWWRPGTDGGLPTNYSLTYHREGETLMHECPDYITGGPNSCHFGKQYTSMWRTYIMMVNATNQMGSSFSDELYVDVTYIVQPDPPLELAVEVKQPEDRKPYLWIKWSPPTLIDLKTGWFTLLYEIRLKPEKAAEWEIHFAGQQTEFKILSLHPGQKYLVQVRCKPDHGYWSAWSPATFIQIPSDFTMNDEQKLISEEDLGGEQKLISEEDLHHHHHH
- assay: Surface plasmon resonance (Biacore T200), antibody-capture format
- Format: binding
- condition.summary: 37° C., analyte hPRLR.mmh
readout.label: kd (s⁻¹)
A number alone suffices; assume s⁻¹.

Example molecules with recorded kd:
{"molecule": "H1H6792P: fully human anti-PRLR antibody, human IgG1 Fc; HCVR/LCVR SEQ ID NOs 130/138 (antibody, V domains shown) VH: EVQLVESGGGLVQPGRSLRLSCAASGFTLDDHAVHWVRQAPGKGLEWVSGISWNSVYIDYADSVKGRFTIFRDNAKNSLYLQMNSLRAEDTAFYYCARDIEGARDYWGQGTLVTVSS VL: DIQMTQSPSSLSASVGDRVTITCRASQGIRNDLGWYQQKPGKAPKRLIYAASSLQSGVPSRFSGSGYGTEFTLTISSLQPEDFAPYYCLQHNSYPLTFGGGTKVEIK", "quantity.unit": "s⁻¹", "experimental.result": 0.00229}
{"molecule": "H1H6967N: anti-PRLR antibody, human IgG1 Fc form of H2M6967N of Table 1; HCVR/LCVR SEQ ID NOs 354/362 (antibody, V domains shown, human IgG1 Fc) VH: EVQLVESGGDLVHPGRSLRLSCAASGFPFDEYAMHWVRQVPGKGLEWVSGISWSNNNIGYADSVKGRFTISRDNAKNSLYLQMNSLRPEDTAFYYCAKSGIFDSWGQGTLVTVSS VL: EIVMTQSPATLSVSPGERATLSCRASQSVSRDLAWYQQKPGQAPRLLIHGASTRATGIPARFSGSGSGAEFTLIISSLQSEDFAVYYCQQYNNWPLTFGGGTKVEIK", "quantity.unit": "s⁻¹", "experimental.result": 0.000933}

Here's the next entry for you.
// lookup kd for H1H6976N: anti-PRLR antibody, human IgG1 Fc form of H2M6976N of Table 1; HCVR/LCVR SEQ ID NOs 386/394 (antibody, V domains shown, human IgG1 Fc) VH: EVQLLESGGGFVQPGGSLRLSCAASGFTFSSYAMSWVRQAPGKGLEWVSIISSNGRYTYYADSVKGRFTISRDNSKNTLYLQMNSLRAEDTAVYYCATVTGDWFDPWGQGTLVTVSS VL: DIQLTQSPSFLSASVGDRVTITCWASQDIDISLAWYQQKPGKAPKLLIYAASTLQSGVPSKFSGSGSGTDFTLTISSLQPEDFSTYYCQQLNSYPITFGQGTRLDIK
0.00314

Provenance of the data: patent US10925971B2
